Data origin, for the record: PubChem BioAssay (Tox21)

Tested on: thyroid hormone receptor (rat, GH3 cells)
Assay notes: qHTS assay to identify small molecule agonists of the thyroid receptor (TR) signaling pathway (AID 743066)
Condition summary: GH3.TRE-Luc cells, TR agonist luciferase, 24 h; series mostly up to 83.9 µM
Results filed as inconclusive are left out. Active and inactive are the calls of the source. Calls follow the shape of the full dose curve.
Readout kind: outcome

A selection of reference data follows.
| Compound | outcome |
| --- | --- |
| Cn1cc[n+](C)c1 (tested in a mixture with another compound) | inactive |
| O=NN1CCCCCC1 | inactive |
| O=C1C(=O)c2cccc3cccc1c23 | inactive |
| c1ccc(CN2CCNCC2)cc1 | inactive |
| CN1C(=O)NC(=O)C(C)(C2=CCCCC2)C1=O (stereo not drawn) | inactive |
| C[C@@H]1CC[C@H]2[C@@H](C)C(=O)O[C@@H]3O[C@@]4(C)CC[C@@H]1[C@]32OO4 | inactive |
| CCC(Br)(CC)C(=O)NC(N)=O | inactive |
| N#CCC#N | inactive |

Here is another compound to look at.
Using the record for CCCC(=O)Cl , report its outcome.
inactive

* * *

Test system: Cytochrome P450 2D6 (Homo sapiens)
Assay notes: Cytochrome P450 Family 2 Subfamily D Member 6 (CYP2D6) small molecule antagonists: luciferase reporter qHTS assay (AID 1671196); also: nearly all actives have a fitted effect of over 50% in size
Condition summary: P450-Glo CYP2D6 enzyme assay, luciferin luminescence, 1 h; series mostly up to 115 µM
Records with an inconclusive call do not appear. Calls of active or inactive are those of the source. Calls follow the shape of the dose curve; as a rule, active = well fitted inhibition curve with a large enough effect in the repeat runs; inconclusive = weak or mixed curves; inactive = no such curve, though single readings can be large or run the other way.
Can you answer with just one of these options? True (active), False (inactive)

Here's what some known entries look like.
| Compound | Class |
| --- | --- |
| COc1cc(Cl)c(OC)cc1Cl | False |
| O=S(=O)(O)C(F)(F)C(F)(F)C(F)(F)C(F)(F)F | True |
| CN1C(=O)NC(=O)C(C)(C2=CCCCC2)C1=O (stereo not given) | False |
| II | True |
| Clc1cc(Cl)c(Cl)c(Cl)c1 | False |

I would be grateful if you could indicate the recorded call for CCOP(=S)(OCC)SCn1nnc2ccccc2c1=O .
True

What would you report for O=C(O)C(F)(F)C(F)(F)C(F)(F)C(F)(F)C(F)(F)C(F)(F)C(F)(F)C(F)(F)C(F)(F)C(F)(F)F ?
False

* * *

Test system: Acetylcholinesterase (Homo sapiens) (UniProt P22303)
Sequence (P22303 whole entry, looked up): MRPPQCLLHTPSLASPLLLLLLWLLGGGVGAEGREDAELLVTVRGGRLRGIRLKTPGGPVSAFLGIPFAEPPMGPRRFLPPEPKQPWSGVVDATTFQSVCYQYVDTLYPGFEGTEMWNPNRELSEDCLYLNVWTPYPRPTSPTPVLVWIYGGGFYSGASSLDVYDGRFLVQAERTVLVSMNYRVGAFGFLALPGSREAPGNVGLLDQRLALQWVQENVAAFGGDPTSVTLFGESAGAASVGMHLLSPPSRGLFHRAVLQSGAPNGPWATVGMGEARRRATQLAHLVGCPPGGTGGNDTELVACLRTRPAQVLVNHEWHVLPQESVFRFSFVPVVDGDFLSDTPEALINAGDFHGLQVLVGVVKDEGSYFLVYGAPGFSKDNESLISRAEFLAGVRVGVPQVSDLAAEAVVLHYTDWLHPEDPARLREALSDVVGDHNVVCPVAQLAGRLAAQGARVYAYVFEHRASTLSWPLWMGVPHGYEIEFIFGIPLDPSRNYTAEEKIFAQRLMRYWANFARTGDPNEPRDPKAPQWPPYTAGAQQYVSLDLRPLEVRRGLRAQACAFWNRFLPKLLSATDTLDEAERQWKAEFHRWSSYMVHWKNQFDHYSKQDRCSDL
Assay notes: Acetylcholinesterase (AChE) small molecule antagonists: colormetric cell-based qHTS assay (AID 1347395); also: nearly all actives have a fitted effect of over 30% in size
Condition summary: SH-SY5Y cells AChE activity, colorimetric (Ellman); series mostly up to 115 µM
Records with an inconclusive call do not appear. The source made the active and inactive calls. Calls come from the whole dose curve.
Please state which outcome applies, choosing from 1 (yes) for active, 0 (no) for inactive

Previously resolved entries follow.
| Molecule | Class |
| --- | --- |
| NNC(=O)c1cccnc1 | 0 (no) |
| CNP(=O)(OC)Oc1ccc(C(C)(C)C)cc1Cl (configuration not stated) | 1 (yes) |
| COC(=O)c1cncn1C(C)c1ccccc1 (configuration not stated) | 0 (no) |
| O=[N+]([O-])c1ccc(F)c([N+](=O)[O-])c1 | 0 (no) |
| C[C@]12CC[C@H]3[C@@H](CCC4=CC(=O)CC[C@@H]43)[C@@H]1CC[C@@H]2OC(=O)CCC1CCCCC1 | 0 (no) |
| c1cc2ccc3cccc4ccc(c1)c2c34 | 0 (no) |

Hello, I am checking results. What call was entered for COCCOCCO ?
0 (no)
